System: SK-MEL-28
Experiment: NCI tumour cell line growth inhibition, 48 h
Activity calls are given as the source filed them. Rule as the data show it: active = GI50 up to about 1.1 µM and inactive = higher.
READOUT_NAME: GI50

The cases that follow already have their GI50 on record.
CCCC(=O)Nc1cc(C(=O)N2C[C@H]3C[C@@]34C2=CC(=O)c2[nH]cc(C)c24)n(COC)c1    0.208 µM (active)
CC(=O)C(CN(C(C)C)C(C)C)C(c1ccccc1)c1c(O)c2ccccc2oc1=O (stereo unspecified)    > 100 µM (inactive)

// moving on: another record for GI50
Answer with the recorded GI50 for the compound listed here: CCOC(=O)C1C[C@H]2CO[C@H](c3ccccc3)N2C1=O (stereo partly specified)
> 100 µM (inactive)

* * *

System: HOP-18
Experiment: NCI tumour cell line growth inhibition, 48 h
Calls of active or inactive are those of the source. Rule as the data show it: active = GI50 up to about 1.1 µM and inactive = higher.
Parameter GI50: see the listing below.

The cases that follow already have their GI50 on record.
CCOc1ccc(NC2=CC(=O)C(=O)c3ccccc32)cc1    2.6 µM (inactive)
Cc1c(C(=O)O)oc2ccc([N+](=O)[O-])cc12    > 100 µM (inactive)

// moving on: another record for GI50
Answer with the recorded GI50 for the compound listed here: Cc1ccc(S(=O)OC23CC4CC(CC(C4)C2)C3)cc1 (stereo not drawn)
> 100 µM (inactive)

* * *

System: DMS-114
Assay: NCI tumour cell line growth inhibition, 48 h
Calls of active or inactive are those of the source. Rule as the data show it: active = GI50 up to about 1.1 µM and inactive = higher.
Valid outcomes are listed here; reply with one: class 1 (active), class 0 (inactive)

Cc1cccc(NC(=O)CC(=O)N2N=C(N(CCC#N)c3ccc(Cl)cc3)CC2c2ccccc2)c1 (stereo not given)    class 0
COC(=O)C1CC2(c3ccccc3)C(=O)c3ccccc3N2O1 (stereo not given)    class 0
CC1(C)OC(C(N)=O)=C(C(N)=O)O1    class 0
CCOc1ccc(NC2=CC(=O)C(=O)c3ccccc32)cc1    class 0

Now look at this one.
What was the test verdict on COc1c(CC=C(C)C)c(O)c(C(CC(C)C)c2c(O)c(CC=C(C)C)c(O)c(C(C)=O)c2O)c(O)c1C(C)=O (stereo not given) ?
class 1

* * *

Test system: DU-145
Test: NCI tumour cell line growth inhibition, 48 h
Calls of active or inactive are those of the source. No stated cut-off is given here; in the data, active = GI50 up to about 1.1 µM and inactive = higher.
Valid outcomes are listed here; reply with one: active, inactive

CCN(CC)CCn1ncc2c3c(=O)c4cccnc4n(CCN(CC)CC)c3ccc21    inactive
CCOC(=O)c1csc(-c2nc(CCNC(=O)c3ccccc3)sc2Cl)n1    inactive
O=C(c1ccccc1)n1[nH]c(=O)n(-c2ccc(Cl)cc2)c1=O    inactive
COC(=O)c1c(O)ccc2c1c1c(n2Cc2cc(OC)cc(OC)c2)C(=O)c2ccccc2C1=O    inactive
COC(=O)C1(CCCCCBr)CCCCCCCCCCC1=O (configuration not stated)    inactive
CC1(C)[C@@H]2CC[C@@]1(C)[C@H](O)[C@@H]2SCc1ccccc1    inactive

What was the test verdict on Nn1c(Cc2ccc(Cl)cc2)n[nH]c1=O ?
inactive

What was the test verdict on N#Cc1c2c(c(N)oc1=O)C(c1ccccc1)CC(=O)N2 (configuration not stated) ?
inactive

What was the test verdict on CCCC(=O)Nc1cc(C(=O)N2C[C@H]3C[C@@]34C2=CC(=O)c2[nH]cc(C)c24)n(COC)c1 ?
active

What was the test verdict on COc1cc2cc(C(=O)N3CC(CCl)c4c3cc(NC(=O)C(C)(C)c3ccccc3[N+](=O)[O-])c3ccccc43)[nH]c2c(OC)c1OC (configuration not stated) ?
active

What was the test verdict on COC(=O)c1ccccc1C1CN=NC12Cc1c(C)cc(C)cc1C2=O (configuration not stated) ?
inactive

Cited source: ChEMBL document CHEMBL1201862
